All figures here come from PubChem BioAssay AID651813.

Target: DNA dC->dU-editing enzyme APOBEC-3G (Homo sapiens) (UniProt Q9HC16)
Sequence (Q9HC16 whole entry, looked up): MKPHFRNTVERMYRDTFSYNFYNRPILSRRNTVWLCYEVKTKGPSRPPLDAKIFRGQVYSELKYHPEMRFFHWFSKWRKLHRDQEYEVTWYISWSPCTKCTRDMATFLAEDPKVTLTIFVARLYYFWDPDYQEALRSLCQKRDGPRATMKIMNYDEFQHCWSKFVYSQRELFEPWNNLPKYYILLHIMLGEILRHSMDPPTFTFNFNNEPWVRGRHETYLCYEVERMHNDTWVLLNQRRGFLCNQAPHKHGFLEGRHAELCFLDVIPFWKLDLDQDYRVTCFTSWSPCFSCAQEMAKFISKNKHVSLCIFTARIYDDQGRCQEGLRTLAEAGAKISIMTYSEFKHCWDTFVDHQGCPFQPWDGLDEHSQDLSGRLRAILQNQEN
Experiment: qHTS for inhibitors of Vif-A3G interactions: Cherry picks counterscreen;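 also: potency is read from the fitted curve at half-maximal effect; hits raise yellow fluorescence by blocking Vif-driven A3G-eYFP degradation; nearly all actives have a fitted effect of over 70% in size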
Settings: HeLa A3G-eYFP + Vif (tagged APOBEC3G with the HIV-1 protein that degrades it), eYFP fluorescence, 24 h
Hit rate of the full screen: of about 2,100 compounds, about 1,100 (52%) were called active. Roughly 27% stayed inconclusive and do not appear here. The set was probably picked from earlier hits. The list shows a part of the results.
measuredMetric: Potency

>  <compound>
NC(=Nc1ccccc1)NN=Cc1c[nH]c2ccccc12

>  <Potency>
2230 nM (active)

$$$$
>  <compound>
COc1cccc(C2=CC(c3cc(Br)ccc3F)n3nnnc3N2)c1 (stereo unspecified)

>  <Potency>
1840 nM (active)

$$$$
>  <compound>
Cc1cc(N(CCCl)CCCl)ccc1C=Cc1ccncn1

>  <Potency>
20600 nM (active)

$$$$
>  <compound>
CN1/C(=C\C=C2C(=O)NC(=O)NC2=O)C(C)(C)c2ccccc21

>  <Potency>
2910 nM (active)

$$$$

Lookup: Quick one: Potency for Nc1ccc2c3c(cccc13)-c1ccccc1-2 ?
Found: 2310 nM (active)

Lookup: Quick one: Potency for CCS(=O)(=O)N1N=C(c2cccc(NS(C)(=O)=O)c2)CC1c1ccccc1 (stereo unspecified) ?
Found: 20600 nM (active)
